Protein target, amino acids: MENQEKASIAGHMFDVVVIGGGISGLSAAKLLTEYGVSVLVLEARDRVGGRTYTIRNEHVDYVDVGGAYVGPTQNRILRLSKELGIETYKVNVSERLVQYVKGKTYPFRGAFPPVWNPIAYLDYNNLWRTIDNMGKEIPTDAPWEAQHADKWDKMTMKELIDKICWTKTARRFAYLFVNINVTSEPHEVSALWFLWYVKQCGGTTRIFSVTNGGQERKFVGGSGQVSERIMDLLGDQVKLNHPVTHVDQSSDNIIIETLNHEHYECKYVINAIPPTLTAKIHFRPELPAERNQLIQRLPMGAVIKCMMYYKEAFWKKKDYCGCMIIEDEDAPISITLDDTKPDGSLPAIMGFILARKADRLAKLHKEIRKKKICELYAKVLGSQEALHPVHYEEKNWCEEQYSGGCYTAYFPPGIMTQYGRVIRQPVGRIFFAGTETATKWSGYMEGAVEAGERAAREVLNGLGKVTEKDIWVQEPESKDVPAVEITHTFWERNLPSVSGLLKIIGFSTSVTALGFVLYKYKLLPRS
pKi: −log10 of the molar value.

structure.smiles.string | pKi
CCN1C(=O)Cc2cc(N3C[C@H](CNC(=O)OC)OC3=O)ccc21 | 3.06

----------
Test system: S. aureus UC-76 SA-1
Assay: in vitro antibacterial activity, S. aureus UC-76 SA-1
Format: cell-based
Settings: Staphylococcus aureus, UC76; strain UC-76 SA-1
attribute.measured: MIC90 (µg/mL)

molecule | attribute.measured | data.value
COC(=O)NC[C@H]1CN(c2ccc3c(c2)CC(=O)N3CCF)C(=O)O1 | MIC90 | 4
COC(=O)NC[C@H]1CN(c2ccc3c(c2)CC(=O)N3CC2CC2)C(=O)O1 | MIC90 | 8
COC(=O)NC[C@H]1CN(c2ccc3c(c2)CC(=O)N3C2CC2)C(=O)O1 | MIC90 | 4
COC(=O)NC[C@H]1CN(c2ccc3c(c2)CC(=O)N3C(C)CF)C(=O)O1 (stereo partly shown) | MIC90 | 4
CCCN1C(=O)Cc2cc(N3C[C@H](CNC(=O)OC)OC3=O)ccc21 | MIC90 | 8
COC(=O)NC[C@H]1CN(c2ccc3c(c2)CC(=O)N3C)C(=O)O1 | MIC90 | 4
COC(=O)NC[C@H]1CN(c2ccc3c(c2)CC(=O)N3C(C)C)C(=O)O1 | MIC90 | 8

These entries and their values trace back to patent US20060229348A1.
